Entries annotated with measured inhibition at 1 µM
biological target: human norepinephrine transporter (Homo sapiens); construct: expressed in transfected cells; test: Inhibitory action on human norepinephrine transporter ([3H]-norepinephrine uptake in CHO cells); assay type: cell-based; details: CHO, compound 1 μM; relative to inhibitory activity of 10 μM DMI as 100%; read-out: inhibitory rate (%)
Sequence (P23975 whole entry): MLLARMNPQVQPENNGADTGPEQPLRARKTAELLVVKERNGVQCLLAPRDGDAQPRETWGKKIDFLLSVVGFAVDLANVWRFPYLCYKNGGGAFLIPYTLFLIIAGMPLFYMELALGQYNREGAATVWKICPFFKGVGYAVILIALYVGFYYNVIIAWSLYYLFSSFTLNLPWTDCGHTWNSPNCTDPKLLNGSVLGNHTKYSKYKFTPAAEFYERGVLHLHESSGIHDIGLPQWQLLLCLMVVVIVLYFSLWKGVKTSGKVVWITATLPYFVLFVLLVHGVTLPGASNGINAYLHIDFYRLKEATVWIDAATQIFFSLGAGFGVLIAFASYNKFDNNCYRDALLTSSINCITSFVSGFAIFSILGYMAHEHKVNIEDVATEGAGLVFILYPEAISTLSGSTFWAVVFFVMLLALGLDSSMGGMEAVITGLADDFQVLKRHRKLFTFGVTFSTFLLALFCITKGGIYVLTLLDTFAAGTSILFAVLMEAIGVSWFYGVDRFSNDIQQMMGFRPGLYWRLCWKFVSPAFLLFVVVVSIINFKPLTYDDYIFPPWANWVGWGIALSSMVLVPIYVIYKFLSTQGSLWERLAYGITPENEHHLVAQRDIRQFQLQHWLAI
Structures can show the parent of a compound that is named as a salt.
Please give a number only; it is taken to be in %.

Sample answers from the record:
molecule="CS(=O)(=O)C[C@@H]1CNCCO[C@H]1c1ccc(Cl)c(Cl)c1 [Example 92, monohydrochloride]" measuredon="human norepinephrine transporter (Homo sapiens)" unitabbrev=% assayvalue=96
molecule="O=c1[nH]c(-c2csc(C[C@@H]3CNCCO[C@H]3c3ccc(Cl)c(Cl)c3)n2)no1 [Example 199, monohydrochloride]" measuredon="human norepinephrine transporter (Homo sapiens)" unitabbrev=% assayvalue=99
molecule="O=C(NC[C@@H]1CNCCO[C@H]1c1ccc(Cl)c(Cl)c1)c1cc(-c2noc(=O)[nH]2)ccn1 [Example 146, monohydrochloride]" measuredon="human norepinephrine transporter (Homo sapiens)" unitabbrev=% assayvalue=101

QUERY: Tell me its inhibition at 1 µM given CCOC(=O)[C@H]1NCCOC[C@@H]1c1ccc(Cl)c(Cl)c1 (racemic) [Example 412, monohydrochloride] as the entry.
RESULT: 86

QUERY: Tell me its inhibition at 1 µM given O=S(=O)(NC[C@@]1(O)CNCCO[C@@H]1c1ccc(Cl)c(Cl)c1)C(F)F (racemic) [Example 521, monohydrochloride] as the entry.
RESULT: 104

QUERY: Tell me its inhibition at 1 µM given O=c1[nH]c(-c2ccc(OC[C@@H]3CNCCO[C@H]3c3ccc(Cl)c(Cl)c3)nc2)no1 [Example 87, monohydrochloride] as the entry.
RESULT: 108

QUERY: Tell me its inhibition at 1 µM given O=C(O)c1cccn(C[C@@H]2CNCCO[C@H]2c2ccc(Cl)c(F)c2)c1=O (racemic) [Example 588] as the entry.
RESULT: 104

* * *

Target: human serotonin transporter (Homo sapiens, UniProt P31645)
Construct: expressed in transfected cells
Sequence (P31645 whole entry): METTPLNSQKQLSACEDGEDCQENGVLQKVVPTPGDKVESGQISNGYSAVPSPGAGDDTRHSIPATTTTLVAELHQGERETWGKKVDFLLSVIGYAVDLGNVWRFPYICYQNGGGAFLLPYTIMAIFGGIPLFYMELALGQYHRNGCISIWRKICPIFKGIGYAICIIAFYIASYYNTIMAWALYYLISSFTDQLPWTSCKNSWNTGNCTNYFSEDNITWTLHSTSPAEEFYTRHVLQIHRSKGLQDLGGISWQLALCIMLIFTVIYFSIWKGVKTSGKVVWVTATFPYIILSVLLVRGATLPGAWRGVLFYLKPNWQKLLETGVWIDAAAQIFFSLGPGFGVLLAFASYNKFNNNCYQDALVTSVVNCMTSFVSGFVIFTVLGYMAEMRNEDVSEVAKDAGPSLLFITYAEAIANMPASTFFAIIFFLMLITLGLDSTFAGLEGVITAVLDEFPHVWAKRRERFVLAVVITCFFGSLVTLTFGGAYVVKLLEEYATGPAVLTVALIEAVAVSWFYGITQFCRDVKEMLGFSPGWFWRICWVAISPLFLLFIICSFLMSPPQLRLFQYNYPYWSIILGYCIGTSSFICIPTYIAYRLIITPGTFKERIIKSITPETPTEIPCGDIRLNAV
Test: Inhibitory action on human serotonin transporter ([3H]-5-hydroxytryptamine uptake in CHO cells)
Assay type: cell-based
Conditions: CHO, compound 1 μM; relative to inhibitory activity of 10 μM Paroxetine as 100%; read-out: inhibitory rate (%)
Description: Human serotonin transporter cDNA was amplified from human brain cDNA library by PCR, and inserted into pCRII-TOPO vector (manufactured by Invitrogen). […] Then, an assay buffer (126 mM NaCl, 4.95 mM KCl, 1.26 mM KH2PO4, 1.26 mM MgSO4, 10 mM HEPES, 2.32 mM CaCl2, 5.52 mM Glucose, 0.5% BSA) was prepared, the medium in the cell plate was removed and the assay buffer was added by 80 μL. […] The radioactivity was measured by TopCount (PerkinElmer). […]
Structures can show the parent of a compound that is named as a salt.
quantityKind: inhibition at 1 µM (%)
Please give a number only; it is taken to be in %.

compound="O=C(NC[C@@H]1CNCCO[C@H]1c1ccc(Cl)c(F)c1)c1cc(-c2noc(=O)[nH]2)ccc1F [Example 357, monohydrochloride]" unitabbrev=% assayvalue=102
compound="CS(=O)(=O)CC1(O)CNCCOC1c1ccc(Cl)c(F)c1 (stereo not shown)" unitabbrev=% assayvalue=95
compound="O=C1CCCCN1C[C@@H]1CNCCO[C@H]1c1ccc(Cl)c(F)c1 [Example 376, monohydrochloride]" unitabbrev=% assayvalue=98

With those in mind, consider the next compound.
QUERY: Please look at CC(=O)N[C@@H]1CNCCO[C@@H]1c1ccc(Cl)c(Cl)c1 (racemic) [Example 62, monohydrochloride] and tell me its recorded inhibition at 1 µM on human serotonin transporter (Homo sapiens, UniProt P31645).
RESULT: 98
